Values were extracted from paper PMC4336329.

Target: human ether-à-go-go-related gene (hERG) potassium channel (human, UniProt Q12809)
Sequence (Q12809 whole entry, looked up): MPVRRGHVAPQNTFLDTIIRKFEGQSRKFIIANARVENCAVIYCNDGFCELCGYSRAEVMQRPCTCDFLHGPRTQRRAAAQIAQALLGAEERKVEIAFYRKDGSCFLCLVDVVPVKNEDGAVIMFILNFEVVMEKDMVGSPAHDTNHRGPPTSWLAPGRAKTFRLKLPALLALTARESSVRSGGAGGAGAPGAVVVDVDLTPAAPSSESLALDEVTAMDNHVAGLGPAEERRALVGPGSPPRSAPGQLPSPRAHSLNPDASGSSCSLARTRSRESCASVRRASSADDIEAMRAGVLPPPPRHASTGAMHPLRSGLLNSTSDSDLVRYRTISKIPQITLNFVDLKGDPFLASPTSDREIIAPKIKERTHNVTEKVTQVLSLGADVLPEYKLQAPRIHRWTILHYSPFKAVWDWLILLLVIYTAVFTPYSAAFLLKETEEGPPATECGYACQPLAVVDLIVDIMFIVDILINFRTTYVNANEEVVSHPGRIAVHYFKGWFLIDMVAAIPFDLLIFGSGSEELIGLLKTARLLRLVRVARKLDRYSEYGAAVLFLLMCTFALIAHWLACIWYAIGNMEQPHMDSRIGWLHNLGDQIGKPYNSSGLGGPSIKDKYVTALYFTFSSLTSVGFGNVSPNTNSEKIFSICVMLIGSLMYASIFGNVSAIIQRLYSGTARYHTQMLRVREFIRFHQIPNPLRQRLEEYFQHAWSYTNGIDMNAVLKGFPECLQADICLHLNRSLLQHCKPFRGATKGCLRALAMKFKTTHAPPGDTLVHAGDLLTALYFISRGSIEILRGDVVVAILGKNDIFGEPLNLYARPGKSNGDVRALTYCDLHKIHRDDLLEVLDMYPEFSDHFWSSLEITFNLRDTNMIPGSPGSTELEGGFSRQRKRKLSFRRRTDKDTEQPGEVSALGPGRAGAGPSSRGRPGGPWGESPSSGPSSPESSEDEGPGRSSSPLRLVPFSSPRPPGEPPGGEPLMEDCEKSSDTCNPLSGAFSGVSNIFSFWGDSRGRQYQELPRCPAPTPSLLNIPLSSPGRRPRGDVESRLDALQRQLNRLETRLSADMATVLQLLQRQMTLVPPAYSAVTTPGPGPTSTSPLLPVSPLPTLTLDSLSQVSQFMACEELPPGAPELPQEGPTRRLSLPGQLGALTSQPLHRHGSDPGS
Experiment: primary screen, population patch clamp on CHO cells stably expressing hERG; higher = less effect of the substance
Out of some 310,000 compounds screened, about 14,000 (4.5%) showed an effect of 50% or more. Effects have a minus sign here. Many of the other results were omitted from the sample, so strong results are more common in it than they were.
This section presents compounds with their documented hERG current change (%, negative = inhibition) at 10uM values.
Write the value in % as a bare number.

>>> print(df.to_string())
                                   compound                              assay_target  readout_number
0  Cc1sc2ncnc(N3CCC(C(=O)NNC(=O)c4ccc(Cl)cc4)CC3)c2c1C  human ether-à-go-go-related gene (hERG) potassium channel (human, UniProt Q12809)           -11.2
1  CN(C(=O)COC(=O)CNS(=O)(=O)/C=C/c1ccccc1)C1CCS(=O)(=O)C1 (stereo not drawn)  human ether-à-go-go-related gene (hERG) potassium channel (human, UniProt Q12809)            23.3
2  COc1cccc(NC(=O)CN(C)C(C)C(=O)Nc2ccc(C#N)cc2)c1 (stereo not drawn)  human ether-à-go-go-related gene (hERG) potassium channel (human, UniProt Q12809)           -59.3
3  Cc1ccc(NC(=O)/C(=C\c2ccc([N+](=O)[O-])cc2)NC(=O)c2ccccc2)cc1  human ether-à-go-go-related gene (hERG) potassium channel (human, UniProt Q12809)           -38.6
4               C1=C(c2c[nH]c3ccccc23)CCNC1  human ether-à-go-go-related gene (hERG) potassium channel (human, UniProt Q12809)            7.59
5  CC(C(=O)Nc1ccccc1)N(C)Cc1cccs1 (stereo not drawn)  human ether-à-go-go-related gene (hERG) potassium channel (human, UniProt Q12809)            8.67

Q: Which hERG current change (%, negative = inhibition) at 10uM reading was recorded for the compound CC(C)CCNc1cc(=O)n(C)c(=O)n1C ?
A: 4.5

---

Each entry below carries its reported hERG current change (%, negative = inhibition) at 10uM.
Target: human ether-à-go-go-related gene (hERG) potassium channel (human, UniProt Q12809)
Assay: primary screen, population patch clamp on CHO cells stably expressing hERG; higher = less effect of the substance
The whole screen tested about 310,000 compounds, of which about 14,000 (4.5%) showed an effect of 50% or more. Effects have a minus sign here. This excerpt belongs to a sample that is enriched for strong results.
Value expressed in %; do not type the unit.

Q: API: value(readout= hERG current change (%, negative = inhibition) at 10uM, system= human ether-à-go-go-related gene (hERG) potassium channel (human, UniProt Q12809), query= CCOC(=O)C(C)On1c(SC(C)C(=O)OCC)nc2ccccc2c1=O (stereo not shown) )
A: -53.5

Q: Please state recorded hERG current change (%, negative = inhibition) at 10uM (tested on human ether-à-go-go-related gene (hERG) potassium channel (human, UniProt Q12809)) of COc1ccc(NC(=O)N(Cc2ccc(C)cc2)Cc2cccnc2)c(OC)c1
A: -10.6

Q: Provide value of hERG current change (%, negative = inhibition) at 10uM for this record tested with human ether-à-go-go-related gene (hERG) potassium channel (human, UniProt Q12809): COc1ccc(C(=O)NC(=S)Nc2nc(C)cc(C)n2)cc1Br
A: 23.1

Q: API: value(readout= hERG current change (%, negative = inhibition) at 10uM, system= human ether-à-go-go-related gene (hERG) potassium channel (human, UniProt Q12809), query= Cc1cc(C)nc(/N=C(\N)N2CCCCCC2)n1 )
A: -3.86

Q: Param readout = hERG current change (%, negative = inhibition) at 10uM; param system = human ether-à-go-go-related gene (hERG) potassium channel (human, UniProt Q12809); param query = O=C(COC(=O)/C=C/c1cccc(C(F)(F)F)c1)NCc1ccco1 ; response: value;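 note: peak tail current of the secondary pulse compared with the same well before compound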
A: 13.5

Q: Given the entry c1ccc(CSc2ccc(-c3cccnc3)nn2)cc1 , what hERG current change (%, negative = inhibition) at 10uM was observed with human ether-à-go-go-related gene (hERG) potassium channel (human, UniProt Q12809)?
A: -13.7

---

Biological target: human ether-à-go-go-related gene (hERG) potassium channel (human, UniProt Q12809);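 note: peak tail current of the secondary pulse compared with the same well before compound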
Assay: primary screen, population patch clamp on CHO cells stably expressing hERG; higher = less effect of the substance
Among all 310,000 compounds or so, about 14,000 (4.5%) showed an effect of 50% or more. The effect is printed as a negative number. The full list was thinned out, with strong results kept by preference.
Please use Fulfilled whenever hERG current change (%, negative = inhibition) at 10uM is not below -20%, and Not fulfilled whenever it is.

Check out these entries, answers already filled in.
In [3]: df
Out[3]:
                                   compound  category_label
0  O=C(NCc1ccc(Cl)cc1)c1ccc(NC(=O)C2CCCO2)cc1 (stereo not shown)       Fulfilled
1  COC(=O)CCCC(=O)N1CCC(CCC(=O)NCc2ccc(F)cc2)CC1   Not fulfilled
2  O=C(/C=C/c1ccco1)N1CCN(C/C=C/c2ccccc2)CC1   Not fulfilled
3  O=C(/C=C/c1ccco1)N1CCN(S(=O)(=O)/C=C/c2ccccc2)CC1   Not fulfilled
4  O=C(NC(=S)N1CCN(C/C=C/c2ccccc2)CC1)c1ccco1   Not fulfilled
5          S=C(NCc1ccco1)N1CCN(Cc2ccco2)CC1       Fulfilled
6         Cc1noc(C)c1COC(=O)COc1ccc(C#N)cc1       Fulfilled
7  CCOC(=O)CC(NCc1ccc(OC)c(OCC)c1)c1ccc(C)cc1.Cl (stereo not shown)   Not fulfilled
8      NC(=O)COC(=O)c1c2c(nc3ccccc13)CCCCC2   Not fulfilled

Q: Please check the record Cc1ccc(NC(=O)Nc2cccc3ccccc23)cc1 and state if its hERG current change (%, negative = inhibition) at 10uM is at or above -20%.
A: Fulfilled

---

Molecular target: human ether-à-go-go-related gene (hERG) potassium channel (human);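 note: peak tail current of the secondary pulse compared with the same well before compound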
Experiment: primary screen, population patch clamp on CHO cells stably expressing hERG; higher = less effect of the substance
Out of some 310,000 compounds screened, about 14,000 (4.5%) showed an effect of 50% or more. Effects have a minus sign here. For the sample, strong results were picked, then their nearest neighbours and some compounds at random.
// reported hERG current change (%, negative = inhibition) at 10uM per item
All answers are understood in %, so give the number only.

Here's what some known entries look like.
>>> df
                                   compound  readout_number
0  OC(COc1ccc(Cl)cc1)CN1CCN(c2ccccn2)CC1 (stereo not shown)             -68
1  O=C(Cc1ccc(F)cc1)NC1CCS(=O)(=O)C1 (stereo not shown)            9.36
2  O=C(NCCc1ccccn1)c1ccc(OC2CCN(Cc3ccccn3)CC2)cc1            2.88
3  CCc1ccc(S(=O)(=O)Nc2cccc(-c3ccc4nnc(C)n4n3)c2)s1           -11.6
4  CCOc1ccc(/C(O)=C2/C(=O)C(=O)N(c3ncccn3)C2c2ccccc2)cc1 (stereo not shown)           -4.75

Q: Entry O=C(Nc1cccc(C(=O)O)c1)/C(=C\c1ccco1)NC(=O)c1ccc(Br)o1 has what hERG current change (%, negative = inhibition) at 10uM?
A: -28.1

Q: What value of measured hERG current change (%, negative = inhibition) at 10uM is listed for CCOC(=O)c1ccc2c(c1)n(CC)c(/C=C/Nc1ccccc1)[n+]2CC.[I-] ?
A: -80

---

Biological target: human ether-à-go-go-related gene (hERG) potassium channel (human, UniProt Q12809);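 note: peak tail current of the secondary pulse compared with the same well before compound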
Test: primary screen, population patch clamp on CHO cells stably expressing hERG; higher = less effect of the substance
About 14,000 (4.5%) of roughly 310,000 compounds showed an effect of 50% or more. The effect is printed as a negative number. Many of the other results were omitted from the sample, so strong results are more common in it than they were.
Assay Readout: hERG current change (%, negative = inhibition) at 10uM
# number then unit; no other words

In [3]: df
Out[3]:
                                   compound  result
0  CCN(CC)S(=O)(=O)c1ccc(C(=O)NC(C)(C)C)cc1   19.1%

Q: Can you share its hERG current change (%, negative = inhibition) at 10uM? I mean this compound: CCOc1ccc(CCNC(=O)COC(=O)C2CCN(c3ccc(C(F)(F)F)cn3)CC2)cc1OCC
A: -10.9%

Q: Need hERG current change (%, negative = inhibition) at 10uM of COc1ccc(C2C(C(=O)N3CCCC3)c3cc(OC)c(OC)cc3C(=O)N2C)cc1OC (centres unmarked) , thanks.
A: 0.414%
